Value source: patent US20220251079A1

target: hSTING-R232 (Homo sapiens, UniProt Q86WV6, H232R); construct: recombinant mouse or human STING protein (aa140-379); 6xHis-SUMO elsewhere) (cleaved yes); made in house; assay: STING Differential Scanning Fluorimetry (DSF) assay, human; type: binding; conditions: human STING R232-WT, 5 μM protein
Sequence (Q86WV6 140-379 H232R): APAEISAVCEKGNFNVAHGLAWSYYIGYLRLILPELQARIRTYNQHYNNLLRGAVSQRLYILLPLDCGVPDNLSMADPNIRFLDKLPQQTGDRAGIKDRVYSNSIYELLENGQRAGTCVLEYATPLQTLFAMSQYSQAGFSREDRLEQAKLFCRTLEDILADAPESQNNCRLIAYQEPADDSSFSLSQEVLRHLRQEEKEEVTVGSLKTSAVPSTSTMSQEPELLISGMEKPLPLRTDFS
Readout label: WT_DSF_hSWAT Tm Shift (° C.)

{"columns": ["Compound", "Readout label", "Recorded result"],
 "data": [
  ["COCCN(c1ccc2c(=O)c3ccc(Cl)c(SC)c3n(CC(=O)O)c2n1)[C@H]1C[C@@H](OC)C1 [Compound 74]", "WT_DSF_hSWAT Tm Shift (° C.)", "D (“D” > 7° C.)"],
  ["CCOc1c(Cl)ccc2c(=O)c3ccc(C(C)(C)C#N)nc3n(CC(=O)O)c12 [Compound 25]", "WT_DSF_hSWAT Tm Shift (° C.)", "D (“D” > 7° C.)"],
  ["COCCN(C)c1nc2c(cc1Cl)c(=O)c1ccc(Cl)c(SC)c1n2CC(=O)O [Compound 75]", "WT_DSF_hSWAT Tm Shift (° C.)", "D (“D” > 7° C.)"]
]}
